# System: rat liver mitochondria (RLM)
# method description: Mitochondrial respiration of isolated RLM (Clark-type oxygen electrode)
# Type: biochemical
# recorded conditions: glutamate/malate; 10 μM
# Experimental: In an embodiment, and as an example, AntiOxCINs and MitoQ toxicity effects on the mitochondrial bioenergetics, namely on RLM ΔΨ and mitochondrial respiration parameters, were measured. […] In addition, the mitochondrial oxidative phosphorylation coupling index, known as respiratory control ratio (RCR, state 3/state 4 respiration) and ADP/O index (the coupling between ATP synthesis and oxygen consumption) were also calculated. […]
measurement kind: ADP/O
Answer with a bare number; do not write a unit.

Here is how some compounds turned out for ADP/O.
Observed ADP/O on rat liver mitochondria (RLM), entry CS(=O)(=O)[O-].O=C(/C=C/c1ccc(O)c(O)c1)NCCCCCC[P+](c1ccccc1)(c1ccccc1)c1ccccc1 [AntiOxCIN2] , equals 2.2

Observed ADP/O on rat liver mitochondria (RLM), entry CS(=O)(=O)[O-].O=C(/C=C/c1ccc(O)c(O)c1)NCCCCCCCCCC[P+](c1ccccc1)(c1ccccc1)c1ccccc1 [AntiOxCIN6] , equals 2.3

Observed ADP/O on rat liver mitochondria (RLM), entry CS(=O)(=O)[O-].O=C(/C=C/c1cc(O)c(O)c(O)c1)NCCCCCCCCCC[P+](c1ccccc1)(c1ccccc1)c1ccccc1 [AntiOxCIN7] , equals 2.6

Observed ADP/O on rat liver mitochondria (RLM), entry CS(=O)(=O)[O-].O=C(/C=C/c1ccc(O)c(O)c1)NCCCCCCCC[P+](c1ccccc1)(c1ccccc1)c1ccccc1 [AntiOxCIN3] , equals 2.4

Observed ADP/O on rat liver mitochondria (RLM), entry CS(=O)(=O)[O-].O=C(/C=C/c1cc(O)c(O)c(O)c1)NCCCCCCCC[P+](c1ccccc1)(c1ccccc1)c1ccccc1 [AntiOxCIN5] , equals 2.5

Observed ADP/O on rat liver mitochondria (RLM), entry COC1=C(OC)C(=O)C(CCCCCCCCCC[P+](c2ccccc2)(c2ccccc2)c2ccccc2)=C(C)C1=O.CS(=O)(=O)[O-] [MitoQ, reference compound] , equals 2.0

Note: attention shifts to another entry.
Observed ADP/O on rat liver mitochondria (RLM), entry CS(=O)(=O)[O-].O=C(/C=C/c1cc(O)c(O)c(O)c1)NCCCCCC[P+](c1ccccc1)(c1ccccc1)c1ccccc1 [AntiOxCIN4] , equals 2.2

----------
Reported Maximum potential (ΔΨ in - mV) values follow for various compounds
# Tested on: rat liver mitochondria (RLM)
# method description: Mitochondrial transmembrane electric potential (ΔΨ) of RLM, safranine fluorescence
# Format: biochemical
# recorded conditions: glutamate/malate; 5 μM
Express the result in mV but write the number alone.

Here is how some compounds turned out for Maximum potential (ΔΨ in - mV).
The compound listed as CS(=O)(=O)[O-].O=C(/C=C/c1ccc(O)c(O)c1)NCCCCCC[P+](c1ccccc1)(c1ccccc1)c1ccccc1 [AntiOxCIN2] shows Maximum potential (ΔΨ in - mV) equal to 214.8

The compound listed as CS(=O)(=O)[O-].O=C(/C=C/c1ccc(O)c(O)c1)NCCCCCCCC[P+](c1ccccc1)(c1ccccc1)c1ccccc1 [AntiOxCIN3] shows Maximum potential (ΔΨ in - mV) equal to 238.9

The compound listed as CS(=O)(=O)[O-].O=C(/C=C/c1cc(O)c(O)c(O)c1)NCCCCCCCC[P+](c1ccccc1)(c1ccccc1)c1ccccc1 [AntiOxCIN5] shows Maximum potential (ΔΨ in - mV) equal to 244.7

The compound listed as CS(=O)(=O)[O-].O=C(/C=C/c1ccc(O)c(O)c1)NCCCCCCCCCC[P+](c1ccccc1)(c1ccccc1)c1ccccc1 [AntiOxCIN6] shows Maximum potential (ΔΨ in - mV) equal to 227.5

The compound listed as COC1=C(OC)C(=O)C(CCCCCCCCCC[P+](c2ccccc2)(c2ccccc2)c2ccccc2)=C(C)C1=O.CS(=O)(=O)[O-] [MitoQ, reference compound] shows Maximum potential (ΔΨ in - mV) equal to 188.3

More entries:
The compound listed as CS(=O)(=O)[O-].O=C(/C=C/c1cc(O)c(O)c(O)c1)NCCCCCC[P+](c1ccccc1)(c1ccccc1)c1ccccc1 [AntiOxCIN4] shows Maximum potential (ΔΨ in - mV) equal to 216.4

The compound listed as CS(=O)(=O)[O-].O=C(/C=C/c1cc(O)c(O)c(O)c1)NCCCCCCCCCC[P+](c1ccccc1)(c1ccccc1)c1ccccc1 [AntiOxCIN7] shows Maximum potential (ΔΨ in - mV) equal to 248.1

----------
# System: rat liver mitochondria (RLM)
# method description: Mitochondrial transmembrane electric potential (ΔΨ) of RLM, safranine fluorescence
# Format: biochemical
# recorded conditions: succinate; 5 μM
Reported ADP-induced depolarization (ΔΨ in - mV) values follow for various compounds

Here is how some compounds turned out for ADP-induced depolarization (ΔΨ in - mV).
The compound listed as CS(=O)(=O)[O-].O=C(/C=C/c1ccc(O)c(O)c1)NCCCCCC[P+](c1ccccc1)(c1ccccc1)c1ccccc1 [AntiOxCIN2] shows ADP-induced depolarization (ΔΨ in - mV) equal to 174.9 ± 5.5 mV

The compound listed as CS(=O)(=O)[O-].O=C(/C=C/c1cc(O)c(O)c(O)c1)NCCCCCCCC[P+](c1ccccc1)(c1ccccc1)c1ccccc1 [AntiOxCIN5] shows ADP-induced depolarization (ΔΨ in - mV) equal to 173.6 ± 6.8 mV

Note: attention shifts to another entry.
The compound listed as CS(=O)(=O)[O-].O=C(/C=C/c1ccc(O)c(O)c1)NCCCCCCCCCC[P+](c1ccccc1)(c1ccccc1)c1ccccc1 [AntiOxCIN6] shows ADP-induced depolarization (ΔΨ in - mV) equal to 167.1 ± 5.7 mV

----------
# System: rat liver mitochondria (RLM)
# method description: Mitochondrial transmembrane electric potential (ΔΨ) of RLM, safranine fluorescence
# Type: biochemical
# recorded conditions: glutamate/malate; 10 μM
Mark Criterion met only when ADP-induced depolarization (ΔΨ in - mV) stays strictly below 200 mV. Values equal to the cut-off are Criterion not met.

IN: is_below(ADP-induced depolarization (ΔΨ in - mV), 200 mV) for CS(=O)(=O)[O-].O=C(/C=C/c1ccc(O)c(O)c1)NCCCCCCCC[P+](c1ccccc1)(c1ccccc1)c1ccccc1 [AntiOxCIN3] ?
OUT: Criterion not met

More entries:
IN: is_below(ADP-induced depolarization (ΔΨ in - mV), 200 mV) for CS(=O)(=O)[O-].O=C(/C=C/c1cc(O)c(O)c(O)c1)NCCCCCCCC[P+](c1ccccc1)(c1ccccc1)c1ccccc1 [AntiOxCIN5] ?
OUT: Criterion met

IN: is_below(ADP-induced depolarization (ΔΨ in - mV), 200 mV) for CS(=O)(=O)[O-].O=C(/C=C/c1ccc(O)c(O)c1)NCCCCCCCCCC[P+](c1ccccc1)(c1ccccc1)c1ccccc1 [AntiOxCIN6] ?
OUT: Criterion met

IN: is_below(ADP-induced depolarization (ΔΨ in - mV), 200 mV) for CS(=O)(=O)[O-].O=C(/C=C/c1cc(O)c(O)c(O)c1)NCCCCCC[P+](c1ccccc1)(c1ccccc1)c1ccccc1 [AntiOxCIN4] ?
OUT: Criterion met

IN: is_below(ADP-induced depolarization (ΔΨ in - mV), 200 mV) for CS(=O)(=O)[O-].O=C(/C=C/c1ccc(O)c(O)c1)NCCCCCC[P+](c1ccccc1)(c1ccccc1)c1ccccc1 [AntiOxCIN2] ?
OUT: Criterion met

----------
# Test system: rat liver mitochondria (RLM)
# method description: Mitochondrial respiration of isolated RLM (Clark-type oxygen electrode)
# Format: biochemical
# recorded conditions: glutamate/malate; 5 μM
Reported RCR (respiratory control ratio, state 3/state 4) values follow for various compounds
Answer with a bare number; do not write a unit.

The compound listed as COC1=C(OC)C(=O)C(CCCCCCCCCC[P+](c2ccccc2)(c2ccccc2)c2ccccc2)=C(C)C1=O.CS(=O)(=O)[O-] [MitoQ, reference compound] shows RCR (respiratory control ratio, state 3/state 4) equal to 2.7

The compound listed as CS(=O)(=O)[O-].O=C(/C=C/c1cc(O)c(O)c(O)c1)NCCCCCCCC[P+](c1ccccc1)(c1ccccc1)c1ccccc1 [AntiOxCIN5] shows RCR (respiratory control ratio, state 3/state 4) equal to 3.7

The compound listed as CS(=O)(=O)[O-].O=C(/C=C/c1ccc(O)c(O)c1)NCCCCCCCCCC[P+](c1ccccc1)(c1ccccc1)c1ccccc1 [AntiOxCIN6] shows RCR (respiratory control ratio, state 3/state 4) equal to 3.3

The compound listed as CS(=O)(=O)[O-].O=C(/C=C/c1cc(O)c(O)c(O)c1)NCCCCCCCCCC[P+](c1ccccc1)(c1ccccc1)c1ccccc1 [AntiOxCIN7] shows RCR (respiratory control ratio, state 3/state 4) equal to 3.5

The compound listed as CS(=O)(=O)[O-].O=C(/C=C/c1cc(O)c(O)c(O)c1)NCCCCCC[P+](c1ccccc1)(c1ccccc1)c1ccccc1 [AntiOxCIN4] shows RCR (respiratory control ratio, state 3/state 4) equal to 4.3

The compound listed as CS(=O)(=O)[O-].O=C(/C=C/c1ccc(O)c(O)c1)NCCCCCCCC[P+](c1ccccc1)(c1ccccc1)c1ccccc1 [AntiOxCIN3] shows RCR (respiratory control ratio, state 3/state 4) equal to 3.5

Note: attention shifts to another entry.
The compound listed as CS(=O)(=O)[O-].O=C(/C=C/c1ccc(O)c(O)c1)NCCCCCC[P+](c1ccccc1)(c1ccccc1)c1ccccc1 [AntiOxCIN2] shows RCR (respiratory control ratio, state 3/state 4) equal to 3.9
